Tested on: NCI-H1651 (Lung Adenocarcinoma)
Assay: combination Emax (second highest fraction inhibited in the dose matrix, 72 h); higher = more inhibition; extreme values may be limits of the assay
# combination Emax per record follows
# print the numeric value only

CC(=O)Nc1cccc(-n2c(=O)n(C3CC3)c(=O)c3c(Nc4ccc(I)cc4F)n(C)c(=O)c(C)c32)c1 [Trametinib] + Cc1nc(-c2cn3c(n2)-c2ccc(-c4cnn(C(C)(C)C(N)=O)c4)cc2OCC3)n(C(C)C)n1 [Taselisib] (first compound max 1 µM, 7x7, partner max 10 µM) | 0.285

Data point: C[C@@H](c1ccc2nccn2c1)n1nnc2ncc(-c3cnn(C)c3)nc21 [Savolitinib] + CC1(C)CCC(CN2CCN(c3ccc(C(=O)NS(=O)(=O)c4ccc(NCC5CCOCC5)c([N+](=O)[O-])c4)c(Oc4cnc5[nH]ccc5c4)c3)CC2)=C(c2ccc(Cl)cc2)C1 [Venetoclax] (first compound max 1 µM, 7x7, partner max 1 µM) ; combination Emax = 0.186

###

# combination Emax per record follows
Tested on: KYSE-220 (Esophageal Squamous Cell Carcinoma)
Test: combination Emax (second highest fraction inhibited in the dose matrix, 72 h); higher = more inhibition; extreme values may be limits of the assay

O=C(c1cc(Cc2n[nH]c(=O)c3ccccc23)ccc1F)N1CCN(C(=O)C2CC2)CC1 [Olaparib] + CN(CC[C@H](CSC1=CC=CC=C1)NC2=C(C=C(C=C2)S(=O)(=O)NC(=O)C3=CC=C(C=C3)N4CCC(CC4)[C@H](C5=CC=CC=C5C6=CC=C(C=C6)Cl)O)S(=O)(=O)C(F)(F)F)CCO [AZD4320] (first compound max 10 µM, 7x7, partner max 1 µM) | 0.267
CC(=O)c1c(C)c2cnc(Nc3ccc(N4CCNCC4)cn3)nc2n(C2CCCC2)c1=O [Palbociclib] + Cn1cnc2c(F)c(Nc3ccc(Br)cc3Cl)c(C(=O)NOCCO)cc21 [Selumetinib] (first compound max 10 µM, 7x7, partner max 10 µM) | 0.66
CN(CCO)CC[C@H](CSc1ccccc1)Nc1ccc(S(=O)(=O)NC(=O)c2ccc(N3CCC([C@@H](O)c4ccccc4-c4ccc(Cl)cc4)CC3)cc2)cc1S(=O)(=O)C(F)(F)F [AZD4320] + CN(C)CCCOc1ccc(-c2ccc3ncc4c(c3c2)n(C2CCOCC2)c(=O)n4C)cn1 [AZD0156] (first compound max 1 µM, 7x7, partner max 1 µM) | 0.14
CN(CCO)CC[C@H](CSc1ccccc1)Nc1ccc(S(=O)(=O)NC(=O)c2ccc(N3CCC([C@@H](O)c4ccccc4-c4ccc(Cl)cc4)CC3)cc2)cc1S(=O)(=O)C(F)(F)F [AZD4320] + Cn1cnc2c(F)c(Nc3ccc(Br)cc3Cl)c(C(=O)NOCCO)cc21 [Selumetinib] (first compound max 1 µM, 7x7, partner max 3 µM) | 0.505
Cc1c2c(nn1C)CSCc1cc(n(C)n1)CSc1cc(c3ccccc3c1)OCCCc1c(C(=O)O)n(C)c3c-2c(Cl)ccc13 [AZD5991] + Nc1ccn([C@@H]2O[C@H](CO)[C@@H](O)C2(F)F)c(=O)n1 [Gemcitabine] (first compound max 1 µM, 7x7, partner max 0.3 µM) | 0.724
CCN(CCO)CCCOc1ccc2c(Nc3cc(CC(=O)Nc4cccc(F)c4)[nH]n3)ncnc2c1 [AZD2811] + C=CCn1c(=O)c2cnc(Nc3ccc(N4CCN(C)CC4)cc3)nc2n1-c1cccc(C(C)(C)O)n1 [AZD1775] (first compound max 1 µM, partner max 1 µM) | 0.804
C[C@@H](c1ccc2nccn2c1)n1nnc2ncc(-c3cnn(C)c3)nc21 [Savolitinib] + CC1(C)CCC(CN2CCN(c3ccc(C(=O)NS(=O)(=O)c4ccc(NCC5CCOCC5)c([N+](=O)[O-])c4)c(Oc4cnc5[nH]ccc5c4)c3)CC2)=C(c2ccc(Cl)cc2)C1 [Venetoclax] (first compound max 1 µM, 7x7, partner max 1 µM) | 0.146
CC1(C)CCC(CN2CCN(c3ccc(C(=O)NS(=O)(=O)c4ccc(NCC5CCOCC5)c([N+](=O)[O-])c4)c(Oc4cnc5[nH]ccc5c4)c3)CC2)=C(c2ccc(Cl)cc2)C1 [Venetoclax] + C=CCn1c(=O)c2cnc(Nc3ccc(N4CCN(C)CC4)cc3)nc2n1-c1cccc(C(C)(C)O)n1 [AZD1775] (first compound max 1 µM, partner max 1 µM) | 0.832

Data point: O=C(c1cc(Cc2n[nH]c(=O)c3ccccc23)ccc1F)N1CCN(C(=O)C2CC2)CC1 [Olaparib] + COc1nnc2ccc(N3CCC(c4ccc(OCCN5CCN(C)C(=O)[C@H]5C)cc4)CC3)nn12 [AZD5153] (first compound max 10 µM, 7x7, partner max 1 µM) ; combination Emax = 0.558

Data point: Cc1cc2ncnn2cc1Nc1ncc2c(n1)n(C1CCOCC1)c(=O)n2C [AZD7648] + COc1cc([C@@H]2c3cc4c(cc3[C@@H](O[C@@H]3O[C@@H]5CO[C@@H](C)O[C@H]5[C@H](O)[C@H]3O)[C@H]3COC(=O)[C@H]23)OCO4)cc(OC)c1O [Etoposide] (first compound max 10 µM, 7x7, partner max 10 µM) ; combination Emax = 0.876

Data point: C=CCn1c(=O)c2cnc(Nc3ccc(N4CCN(C)CC4)cc3)nc2n1-c1cccc(C(C)(C)O)n1 [AZD1775] + O=C(c1cc(Cc2n[nH]c(=O)c3ccccc23)ccc1F)N1CCN(C(=O)C2CC2)CC1 [Olaparib] (first compound max 1 µM, partner max 10 µM) ; combination Emax = 0.857

Data point: Cc1nc(Nc2ncc(C(=O)Nc3c(C)cccc3Cl)s2)cc(N2CCN(CCO)CC2)n1 [Dasatinib] + CC(=O)Nc1cccc(-n2c(=O)n(C3CC3)c(=O)c3c(Nc4ccc(I)cc4F)n(C)c(=O)c(C)c32)c1 [Trametinib] (first compound max 2 µM, 7x7, partner max 1 µM) ; combination Emax = 0.555
